- test_name: qHTS assay for small molecule activators of the heat shock response signaling pathway - cell viability counter screen (AID 743209); note: nearly all actives have a fitted effect of over 50% in size
- condition_set: HSE-bla HeLa viability, CellTiter-Glo luminescence, 5 h; series mostly up to 62.6 µM
Records with an inconclusive call do not appear. Active and inactive are the calls of the source. Calls come from the whole dose curve; as a rule, active = well fitted cell-killing curve with a large enough effect in the repeat runs; inconclusive = weak or mixed curves, or effect the other way; inactive = no such curve, though single readings can be large or run the other way.
Mark one answer only. Choices: yes (1) = active, no (0) = inactive

Request: Which outcome was entered for the compound "CCCCCCCCCCCCc1ccc(O)cc1" in this test?
Response: yes (1)

Request: For this compound, state the assay outcome: "CCCCCCCCCCCCCCCC(=O)OC[C@H](O)[C@H]1OC(=O)C(O)=C1O"
Response: yes (1)

Request: How did this test come out for "NC(=O)CC[C@@H]1NC(=O)[C@H](Cc2ccccc2)NC(=O)[C@H](Cc2ccc(O)cc2)NC(=O)CCSSC[C@@H](C(=O)N2CCC[C@H]2C(=O)N[C@@H](CCCN=C(N)N)C(=O)NCC(N)=O)NC(=O)[C@H](CC(N)=O)NC1=O" ?
Response: no (0)

Request: Call for entry "CN(C)[C@@H]1C(=O)C(C(N)=O)=C(O)[C@@]2(O)C(=O)C3=C(O)c4c(O)ccc(Cl)c4[C@@H](O)[C@H]3C[C@@H]12" :
Response: no (0)

Request: # outcome recorded in this test, key = "Oc1ccc2cc(SSc3ccc4cc(O)ccc4c3)ccc2c1"
Response: no (0)

Request: Which outcome was entered for the compound "O=C(OCC(COC(=O)c1ccccc1)(COC(=O)c1ccccc1)COC(=O)c1ccccc1)c1ccccc1" in this test?
Response: no (0)

Request: Call for entry "CNCc1cc(F)ccc1Oc1ccc(Cl)c(Cl)c1" :
Response: no (0)

Request: Please share the test call associated with CCOc1nc2cccc(C(=O)OC(C)OC(=O)OC3CCCCC3)c2n1Cc1ccc(-c2ccccc2-c2nn[nH]n2)cc1 (stereo unspecified) .
Response: yes (1)

Request: Check the results log: what was the call for "Nc1cc(C(F)(F)F)ccc1S" ?
Response: no (0)

Request: Record lookup: outcome of this test for "OC1(c2ccc(Cl)c(C(F)(F)F)c2)CCN(CCCC(c2ccc(F)cc2)c2ccc(F)cc2)CC1" ?
Response: yes (1)

Request: Called result for "O=C(c1ccc(O)cc1O)c1ccc(O)cc1O"
Response: no (0)

Request: Hey, what did the test say about "CCCCCCCC[N+](CCCCCCCC)(CCCCCCCC)CCCCCCCC" ?
Response: yes (1)

Request: GET /call?item= "N=C1C=CC(=C(c2ccc(N)cc2)c2ccc(N)cc2)C=C1" returns the recorded outcome of this test.
Response: yes (1)

Request: What did the test return for "Cc1onc(-c2ccccc2Cl)c1C(=O)N[C@@H]1C(=O)N2[C@@H]1SC(C)(C)[C@@H]2C(=O)O" ?
Response: no (0)

Request: Answer briefly: the call reported for "CC1=C(/C=C/C(C)=C/C=C/C(C)=C/C=O)C(C)(C)CCC1" in this assay.
Response: yes (1)

Request: In this assay, the call recorded for "COc1cc(/C=C/C(=O)O[C@H]2CC[C@]34C[C@]35CC[C@]3(C)[C@@H]([C@H](C)CCC=C(C)C)CC[C@@]3(C)[C@@H]5CC[C@H]4C2(C)C)ccc1O" was what?
Response: no (0)

Request: Call for entry "CC[C@@]1(O)C(=O)OCc2c1cc1n(c2=O)Cc2c-1nc1ccccc1c2/C=N/OC(C)(C)C" :
Response: yes (1)

Request: Test call, this compound: "Cc1[nH]cnc1C[C@H]1CCc2c(C)c3ccccc3n2C1=O"
Response: no (0)

Request: Which outcome was entered for the compound "O=C1C=CC(=O)N1" in this test?
Response: yes (1)

Request: Which outcome did this test record for the compound CCCCCCCCNC(C)C(O)c1ccc(SC(C)C)cc1 (stereo unspecified) ?
Response: yes (1)

Request: Which outcome did this test record for the compound "CCCC/C=C/CCCCO" ?
Response: no (0)

Request: Hi, sorry to bother you, what did the test record for "O=C1CCCCCN1SSN1CCCCCC1=O" ?
Response: no (0)

Request: Hey, what did the test say about "Nc1ccc2c3c(cccc13)-c1ccccc1-2" ?
Response: no (0)

Request: Could you check what this test reported for CC1=C(C(=O)OC(C)C)C(c2cccc([N+](=O)[O-])c2)C(C(=O)OC2CN(C(c3ccccc3)c3ccccc3)C2)=C(N)N1 (stereo unspecified) ?
Response: yes (1)

Request: How was "Cc1ccc2oc(CN(Cc3ccccc3)C(=O)Nc3c(F)cc(F)cc3F)c(-c3ccc(Cl)cc3)c2c1" classified in this test?
Response: no (0)

Request: Short answer needed: outcome of this test for "NNc1nc(-c2ccccc2)cs1" ?
Response: no (0)
